Reference source for all entries: ChEMBL document CHEMBL1944515

test: Cytotoxicity against human A549-T12 cells after 72 hrs by MTT assay; assay type: functional, cell-based; settings: A549, 72 h
pIC50: −log10 of the molar value.
readout: pIC50

1) CCOc1ccc(-c2nnnn2-c2cc(OC)c(OC)c(OC)c2)cc1Cl 7.50
2) CCOc1ccc(-c2nnnn2-c2cc(OC)c(OC)c(OC)c2)cc1 8.09
3) CCOc1ccc(-n2nnnc2-c2cc(OC)c(OC)c(OC)c2)cc1 8.38

###

experiment: Cytotoxicity against human CEM/VBL100 cells after 72 hrs by MTT assay; type: functional, cell-based; conditions: CEM/VBL100, 72 h
pIC50: −log10 of the molar value.
readout: pIC50

1) CCOc1ccc(-c2nnnn2-c2cc(OC)c(OC)c(OC)c2)cc1 9.15
2) CCOc1ccc(-n2nnnc2-c2cc(OC)c(OC)c(OC)c2)cc1 9.30
3) CCOc1ccc(-c2nnnn2-c2cc(OC)c(OC)c(OC)c2)cc1Cl 9.15
